Test system: PC-3 (Prostate)
assay.explanation: NCI anti-cancer drug screen, growth inhibition of PC-3 cells
Type: cell-based
protocol.conditions: Homo sapiens, Table 5
pIC50: −log10 of the molar value.
readout: pIC50

* Cc1ccc(-c2nc(C(=O)NCc3cn(Cc4cccc(Oc5ccccc5)c4)nn3)co2)cc1 [ND-008467] | 6.00
* O=C(NCc1cn(Cc2cccc(Oc3ccccc3)c2)nn1)c1coc(-c2ccccc2)n1 [Compound 9c] | 6.30
* Cc1ccc(Cn2cc(CNC(=O)c3coc(-c4ccc(C)cc4)n3)nn2)cc1 [ND-008465] | 4.70
* COc1ccc(-c2nc(C(=O)Nc3cn(Cc4ccc(Oc5ccccc5)cc4)nn3)co2)cc1 [ND-007887] | 5.90
* O=C(NCc1cn(Cc2cccc(Oc3ccccc3)c2)nn1)c1coc(-c2ccc(Cl)cc2)n1 [ND-008186] | 5.62
* COc1ccc(-c2ccc(CNCc3cn(Cc4ccc(Oc5ccccc5)cc4)nn3)s2)cc1 [ND-008174] | 5.00
